tested on: CCRIS mutagenicity, Ames/micronucleus/aberration tests; experiment: CCRIS mutagenicity studies; settings: Test System: E. COLI; Strain/Indicator: WP2 UVRA; Metabolic Activation: MOUSE, LIVER, S-9; Method: STANDARD PLATE
Calls of active or inactive are those of the source. No rule for the calls is given here.
Entry note: the call must match one of TRUE for active, FALSE for inactive

Worked set:
Cc1ccc2nc3c(ccc4ccccc43)c(C)c2c1	FALSE
O=CNc1nc(-c2ccc([N+](=O)[O-])o2)cs1	TRUE
S=C(NC1CCCCC1)NC1CCCCC1	FALSE
CCOS(C)(=O)=O	FALSE
C1O[C@@H]1[C@@H]1CO1	FALSE
Nc1ccc(S(=O)(=O)c2ccc(N)cc2)cc1	FALSE
Nc1ncn[nH]1	FALSE
CNC(=O)ON=CC(C)(C)SC	FALSE
[O-]/[N+](=N\O)c1ccccc1	FALSE
Clc1cccc(-c2ccc(Cl)c(Cl)c2Cl)c1Cl	FALSE

What did the test return for Nc1ccc(Cc2ccc(N)cc2)cc1 ?
FALSE

What did the test return for O=C(O)CN(CCN(CC(=O)O)CC(=O)O)CC(=O)O ?
FALSE

What did the test return for CN(C)c1ccc(N=Nc2ccccc2)cc1 ?
FALSE
